Assay: chemical genetic growth profiling, strain panel (AID 1159580);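 also: tested at 20 µM; growth read once vehicle control cultures reached saturation at 30 °C; 1 = growth at the plate median or of vehicle wells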
Conditions: S. cerevisiae deletion strains, growth OD, locus YBR135W, strain CKS1, stronger effect = lower value
About 2,000 (36%) of roughly 5,500 compounds were called active. Inconclusive results (about 18%) are left out. The list shows a part of the results.
reported.property: normalized growth
One number for each entry.

Recorded results for 5 molecules are shown here.
structure: O=C(Oc1cccc2[nH]ccc12)c1ccc(C(F)(F)F)cc1
reported.property: normalized growth
meas.value: 0.974

structure: N/C(Cn1ccc(C(F)(F)F)n1)=N/OS(=O)(=O)c1cccc(Cl)c1Cl
reported.property: normalized growth
meas.value: 0.977

structure: O=C(ON=C1CCCCC1)c1ccc([N+](=O)[O-])cc1
reported.property: normalized growth
meas.value: 0.947

structure: CCOC(=O)c1ccc2nc(N=CNO)sc2c1
reported.property: normalized growth
meas.value: 0.947

structure: Fc1cc(I)ccc1Nc1ccnc2cc(Cl)ccc12
reported.property: normalized growth
meas.value: 0.981

Next, consider the following molecule.
Prompt: Look up normalized growth: `C/C(Cc1nnn(-c2cc(C)on2)n1)=N/OC(=O)Nc1ccc(Cl)cc1`
Completion: 0.988

====

Test: chemical genetic growth profiling, strain panel (AID 1159580)
Conditions: S. cerevisiae deletion strains, growth OD, locus YJL187C, strain SWE1
In all, about 5,500 compounds went through this assay and about 2,000 (36%) were called active. Inconclusive results (about 18%) are left out. Rule as the data show it: active = normalized growth mostly below about 0.91 (no sharp cut-off); inconclusive = no clear call, values can overlap the other calls; inactive = mostly above about 0.92. The list shows a part of the results.
Give one outcome, nothing more. List: active, inactive

Solved cases (5 shown):
molecule: C=C1C2CC[C@@]3(C)[C@H](c4ccoc4)OC(=O)C[C@]13O[C@H]1CC(=O)C(C)(C)[C@H](C(OC(C)=O)C(=O)OC)[C@@]21C (stereo partly specified)
answer.label: inactive
--
molecule: CCCCCCCCCCCCN1CNC(=S)NC1
answer.label: active
--
molecule: C=C[C@@](C)(O)CCC1C(=C)CCC2[C@@](C)(CO)CCC[C@]12C (stereo partly specified)
answer.label: inactive
--
molecule: O=[N+]([O-])c1ccc(N2CCCCC2)nc1N1CCCCC1
answer.label: inactive
--
molecule: C/C(=N/O)c1sc2nc(C(F)(F)F)nn2c1C
answer.label: inactive

Prompt: Outcome logged for C=C[C@@](C)(O)CCC1C(=C)C[C@H](O)C2C(C)(C)CCCC12C (stereo partly specified) in this assay:
Completion: inactive

Prompt: What call does the record list for `c1ccc2c(c1)sc1ccccc12` ?
Completion: active

Prompt: Record lookup: outcome of this test for `O=[N+]([O-])c1ccc(S(=O)(=O)N2CCCCC2)cc1` ?
Completion: inactive

Prompt: Answer briefly: the call reported for `CCn1cc(C(=O)O)c(=O)c2cc(F)c(N3CCNCC3)nc21` in this assay.
Completion: inactive

Prompt: Hello, I am checking results. What call was entered for `COc1c(Br)cc([N+](=O)[O-])c(OC)c1C(N)=O` ?
Completion: inactive

Prompt: Outcome? COC(=O)[C@@H]1OC(=O)C2OC23[C@@]1(C)CCC1[C@]2(C)C(C[C@H](O)[C@]13C)C(C)(C)[C@H](OC(C)=O)C[C@@H]2OC(C)=O (stereo partly specified)
Completion: inactive

====

Assay: chemical genetic growth profiling, strain panel (AID 1159580)
Details: S. cerevisiae deletion strains, growth OD, locus YPR141C, strain kar3
About 2,000 (36%) of roughly 5,500 compounds were called active. Inconclusive results (about 18%) are left out. No stated cut-off is given here; in the data, active means normalized growth mostly below about 0.91 (no sharp cut-off); inconclusive means no clear call, values can overlap the other calls; inactive means mostly above about 0.92. The list shows a part of the results.
Select the correct class. Options are T (active), F (inactive) and nothing else.

Prompt: What is the recorded call for this compound in the test? `NCCCS(=O)(=O)O`
Completion: F

Prompt: Check the results log: what was the call for `CN(C)CCN(Cc1ccccc1)c1ccccn1` ?
Completion: F

Prompt: Hi, do you know how `C=CCc1ccc(O)c(OC)c1` came out in this test?
Completion: T

Prompt: Recorded test call requested for C=C1C2CC[C@@]3(C)[C@H](c4ccoc4)OC(=O)C[C@]13O[C@H]1CC(=O)C(C)(C)[C@H](C(OC(C)=O)C(=O)OC)[C@@]21C (stereo partly specified)
Completion: F

Prompt: Any idea what this test logged for `Cc1ccc(S(=O)(=O)NC(=O)NN2CCCCCC2)cc1` ?
Completion: F

Prompt: Call for entry `COc1ccc(C(=O)O)cc1OC` :
Completion: F

====

Test: chemical genetic growth profiling, strain panel (AID 1159580)
Conditions: S. cerevisiae deletion strains, growth OD, locus YPL204W, strain HRR25, stronger effect = lower value
Screen size: about 5,500 compounds; about 2,000 (36%) were called active. Another 18% or so got no clear call; they are omitted. Some of the results follow.
reported.property: normalized growth

Worked examples follow.
molecule: Cc1nn(C)c(C(=O)Sc2ccc(OC(F)(F)F)cc2)c1[N+](=O)[O-]
meas.value: 1.06 (inactive)

molecule: C/C(Cc1nnn(-c2cc(C)on2)n1)=N/OC(=O)Nc1ccc(Cl)cc1
meas.value: 0.954 (inactive)

molecule: Cc1cc(C(=O)NNS(=O)(=O)c2ccc(F)c(Cl)c2)nn1-c1c(Cl)cc(Cl)cc1Cl
meas.value: 1.04 (inactive)

molecule: CC(C)(C)c1ccc(C(=N)SC(C(=O)C(F)(F)F)c2ccccc2)cc1 (stereo not given)
meas.value: 0.905 (inactive)

Okay, next one:
Prompt: Please report the recorded normalized growth for `COc1cccc(C2CCN(C(=O)c3cccc4ccccc34)CC2)c1` .
Completion: 0.923 (inactive)

====

Field: normalized growth. Provide a value for each of the compounds that follow.
Experiment: chemical genetic growth profiling, strain panel (AID 1159580)
Settings: S. cerevisiae deletion strains, growth OD, locus YOR083W, strain WHI5 (second series), stronger effect = lower value
About 2,000 (36%) of roughly 5,500 compounds were called active. Inconclusive results (about 18%) are left out. Some of the results follow.

// batch mode: one normalized growth value per listed entry
1. O=C1NC(=O)C(c2ccccc2)(c2ccccc2)N1
2. CCCCCCCCCCCCCCCCCCNC(=O)OCC(COP(=O)([O-])OCC[n+]1ccsc1)OC (centres undefined)
3. NC(CCCCCP(=O)(O)O)C(=O)O (centres undefined)

Completion:
1.03 (inactive)
1.01 (inactive)
0.983 (inactive)

Prompt: Which normalized growth reading was recorded for the compound CCCCCCCCCCCCCCCCCC(=O)NCC(COP(=O)([O-])OCC[N+](C)(C)C)OCC (centres undefined) ?
Completion: 0.116 (active)

====

Experiment: chemical genetic growth profiling, strain panel (AID 1159580);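 also: tested at 20 µM; growth read once vehicle control cultures reached saturation at 30 °C; 1 = growth at the plate median or of vehicle wells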
Details: S. cerevisiae deletion strains, growth OD, locus YFR010W, strain ubp6, stronger effect = lower value
About 2,000 (36%) of roughly 5,500 compounds were called active. Not shown: some 18% with an inconclusive outcome. This is one part of the list.
Exercise: state measured normalized growth for each of the compounds provided.
Answers are plain numbers.

compound: CCC(C)C(=O)O[C@@H]1C[C@@]2(C)[C@H](c3ccoc3)OC(=O)CC23OC2(C)O[C@]14[C@]1(C)[C@@H](CC(=O)OC)C5(C)CC1(O)[C@](O)(C5OC(=O)C1(C)OC1C)[C@@H](OC(C)=O)[C@]34O2 (some centres not stated)
meas.value: 0.985

Now look at this one.
Prompt: Give the measured normalized growth of COC(=O)C[C@H]1C2(C)CC34OC5(C)O[C@@]6([C@H](OC)C(OC(=O)C(C)C)[C@]7(C)C(/C(=C(/OC)C(C)C)C(=O)O[C@H]7c7ccoc7)[C@@]6(O5)[C@H](OC)[C@@]3(OC)C2OC(C)=O)[C@]14C (some centres not stated) .
Completion: 0.992

====

Assay: chemical genetic growth profiling, strain panel (AID 1159580);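 also: tested at 20 µM; growth read once vehicle control cultures reached saturation at 30 °C; 1 = growth at the plate median or of vehicle wells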
Settings: S. cerevisiae deletion strains, growth OD, locus YCR088W, strain abp1
Among all 5,500 compounds or so, about 2,000 (36%) were called active. About 18% were inconclusive and are not listed. Cut-off read from the data, not from the text of the source: active = normalized growth mostly below about 0.91 (no sharp cut-off); inconclusive = no clear call, values can overlap the other calls; inactive = mostly above about 0.92. Some of the results follow.
Entry note: the call must match one of active, inactive

As a guide, the following entries are already answered.
compound: O=C(O)/C=C/c1ccc(O)c(O)c1
answer.label: inactive

compound: COc1ccc(C(c2ccc(OC)cc2)C(Cl)(Cl)Cl)cc1
answer.label: inactive

compound: O=C(/C=C/c1ccc(O)c(O)c1)OC(Cc1ccc(O)c(O)c1)C(=O)O (stereo unspecified)
answer.label: inactive

Prompt: Could you kindly confirm the outcome this assay logged for COc1ccc(C(CN(C)C)C2(O)CCCCC2)cc1 (stereo unspecified) ?
Completion: inactive

Prompt: Outcome? `O=C(/C=C/c1ccc(O)c(O)c1)OCCc1ccccc1`
Completion: active

Prompt: Per the records of this test, what outcome belongs to `Clc1ccc(C(c2ccc(Cl)cc2)C(Cl)(Cl)Cl)cc1` ?
Completion: inactive

====

Assay: chemical genetic growth profiling, strain panel (AID 1159580);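 also: tested at 20 µM; growth read once vehicle control cultures reached saturation at 30 °C; 1 = growth at the plate median or of vehicle wells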
Conditions: S. cerevisiae deletion strains, growth OD, locus YAR019C, strain CDC15, stronger effect = lower value
Screen size: about 5,500 compounds; about 2,000 (36%) were called active. Roughly 18% stayed inconclusive and do not appear here. The list shows a part of the results.
Please go through the items and note down their normalized growth.
Answers are plain numbers.

Worked examples follow.
compound: O=C(Nc1cccc(C(F)(F)F)c1)c1cncc(C#Cc2ccccc2)c1
meas.value: 0.971
--
compound: O=C(Oc1cccc2[nH]ccc12)c1ccc(C(F)(F)F)cc1
meas.value: 0.968
--
compound: Cc1cccc(NC(=S)N/N=C\c2ccc(F)cc2)c1
meas.value: 0.96

Could you tell me normalized growth for each of these compounds? They are listed below.
1. Cc1cc(C)cc(Sc2ccc3nnc(-c4ccccc4)n3n2)c1
2. Oc1c(Cl)cc(Cl)cc1C=Nc1nc(-c2ccc3ccccc3c2)cs1
3. C/C(Cc1nnn(-c2cc(C)on2)n1)=N/OC(=O)Nc1ccc(Cl)cc1
4. COc1ccc(C(CC(=O)c2ccccc2)Sc2ccccc2N)cc1OC (stereo unspecified)

Completion:
0.983
0.958
0.989
0.977
